Attribution: ChEMBL document CHEMBL1150537

For each of the compounds below, state its log10 of IC50.
target: Phosphatidylinositol 4-kinase, PI4K (Homo sapiens, UniProt Q9BTU6+Q8TCG2+Q9UBF8+P42356); assay: Inhibition of Phosphatidylinositol 4-kinase of human epidermoid carcinoma A431 cells; assay type: cell-based; details: a-431
Quick note: numbers are log10 of IC50, with µg/mL as the unit.

Using the record for `COC(=O)CCNC(=O)c1c[nH]c2nc(N)nc(O)c12` , report its log10 of IC50.
-0.52

Using the record for `NC(=O)CCNC(=O)c1c[nH]c2nc(N)nc(O)c12` , report its log10 of IC50.
-1.70

Using the record for NC(=O)CCNC(=O)c1cn(C2O[C@H](CO)C(O)[C@H]2O)c2nc(N)nc(O)c12 (single isomer, unassigned) , report its log10 of IC50.
0.38

Using the record for NC(=O)NCCCNC(=O)c1cn(C2O[C@H](CO)C(O)[C@H]2O)c2nc(N)nc(O)c12 (single isomer, unassigned) , report its log10 of IC50.
0.00

Using the record for NCCCNC(=O)c1c[nH]c2nc(N)nc(O)c12 [ECHIGUANINE B] , report its log10 of IC50.
-0.74

Using the record for COC(=O)CCNC(=O)c1cn(C2O[C@H](CO)C(O)[C@H]2O)c2nc(N)nc(O)c12 (single isomer, unassigned) , report its log10 of IC50.
1.40

---

molecular target: Phosphatidylinositol 4-kinase, PI4K (Homo sapiens, UniProt Q9BTU6+Q8TCG2+Q9UBF8+P42356); assay: Inhibition of Phosphatidylinositol 4-kinase of human epidermoid carcinoma A431 cells; type: cell-based; conditions: a-431
assay_endpoint: IC50

// lookup IC50 | system=Phosphatidylinositol 4-kinase, PI4K (Homo sapiens, UniProt Q9BTU6+Q8TCG2+Q9UBF8+P42356) | key= N=C(N)CCNC(=O)c1cn(C2O[C@H](CO)C(O)[C@H]2O)c2nc(N)nc(O)c12 (single isomer, unassigned)
100 µg/mL

// lookup IC50 | system=Phosphatidylinositol 4-kinase, PI4K (Homo sapiens, UniProt Q9BTU6+Q8TCG2+Q9UBF8+P42356) | key= `N=C(N)NCCCNC(=O)c1c[nH]c2nc(N)nc(O)c12`
0.15 µg/mL

// lookup IC50 | system=Phosphatidylinositol 4-kinase, PI4K (Homo sapiens, UniProt Q9BTU6+Q8TCG2+Q9UBF8+P42356) | key= `N#CCCNC(=O)c1c[nH]c2nc(N)nc(O)c12`
0.45 µg/mL

// lookup IC50 | system=Phosphatidylinositol 4-kinase, PI4K (Homo sapiens, UniProt Q9BTU6+Q8TCG2+Q9UBF8+P42356) | key= N#CCCNC(=O)c1cn(C2O[C@H](CO)C(O)[C@H]2O)c2nc(N)nc(O)c12 (single isomer, unassigned)
> 100 µg/mL

// lookup IC50 | system=Phosphatidylinositol 4-kinase, PI4K (Homo sapiens, UniProt Q9BTU6+Q8TCG2+Q9UBF8+P42356) | key= N=C(N)NCCCNC(=O)c1cn(C2O[C@H](CO)C(O)[C@H]2O)c2nc(N)nc(O)c12 (single isomer, unassigned)
7.5 µg/mL
